# experimental_target: recombinant His-tagged PCSK9 wild type (proprotein convertase subtilisin/kexin type 9) (human, UniProt Q8NBP7 153-692, Limits of the kit protein are not printed. Taken as secreted, autocleaved PCSK9: prodomain 31-152 non-covalently bound to mature chain 153-692, from UniProt features. His tag omitted.)
# Sequence (Q8NBP7 153-692): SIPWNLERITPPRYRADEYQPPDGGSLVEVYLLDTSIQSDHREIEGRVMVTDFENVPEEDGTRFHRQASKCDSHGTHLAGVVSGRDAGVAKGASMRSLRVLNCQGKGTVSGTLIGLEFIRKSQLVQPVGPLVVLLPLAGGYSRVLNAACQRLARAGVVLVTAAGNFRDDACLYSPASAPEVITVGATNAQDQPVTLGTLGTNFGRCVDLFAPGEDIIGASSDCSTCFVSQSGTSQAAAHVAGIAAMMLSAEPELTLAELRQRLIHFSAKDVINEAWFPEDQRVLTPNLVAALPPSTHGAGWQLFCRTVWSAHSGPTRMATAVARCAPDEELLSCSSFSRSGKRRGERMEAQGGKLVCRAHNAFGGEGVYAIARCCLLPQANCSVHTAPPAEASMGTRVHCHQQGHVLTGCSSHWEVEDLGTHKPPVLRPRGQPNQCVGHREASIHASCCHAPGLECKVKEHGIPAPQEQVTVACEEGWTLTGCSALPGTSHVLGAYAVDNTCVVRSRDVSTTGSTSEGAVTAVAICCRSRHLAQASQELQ
# test: ELISA; CycLex in vitro PCSK9-LDLR binding assay: plate pre-coated with LDLR-AB domain; His-tagged PCSK9 added with vehicle or synthetic peptides T9 (32-320 uM) or P5 (0.001-100 uM), 2 h at room temperature; bound PCSK9 detected with biotinylated anti-His-tag antibody, absorbance at 450 nm
# assay_conditions: both partners purified

{"columns": ["binder", "IC50 (µM)"],
 "data": [
  ["LILPKHSDAD (peptic peptide of Lupinus albus β2-conglutin (beta-conglutin precursor); source: synthetic peptide (PRIMM, Milan), >95% pure by HPLC) [P5]", 1.6]
]}
